Could you please report measured pIC50 for the items listed next?
TARGET: Jack bean (Canavalia ensiformis) urease (Canavalia ensiformis (Jack bean) (Dolichos ensiformis))
METHOD_NOTES: biochemical
Assay type: biochemical
PARTICULARS: Jack bean urease, pH 6.8, 100 mM urea, 30° C., 15 min; read-out: IC50 ± SEM
Protocol: The Schiff bases of thiazoles were evaluated for their urease inhibitory potential by using the following protocol: Finally the results were processed by software SoftMax Pro (Molecular Devices, CA, USA), MS-Excel and Ez-fit. The Percent inhibition was calculated from the formula given below: 100−(OD of test compound/OD of control)×100 The IC50 values were then calculated using the EZ-Fit Enzyme Kinetics program (Perrella Scientific Inc., Amherst, U.S.A.).
Give bare numbers, as −log10 of the molar value.

{"ITEM_SMILES": "Oc1ccccc1C=Nc1nc(-c2ccccc2)cs1", "REPORTED": 4.91}

Items follow; give pIC50 for each.
1. Cc1ccc(C=Nc2nc(-c3ccccc3)cs2)o1
2. C(=Nc1nc(-c2ccccc2)cs1)c1c[nH]c2ccccc12
3. C(=Nc1nc(-c2ccccc2)cs1)c1cccc2ccccc12
4. Oc1ccc(Cl)cc1C=Nc1nc(-c2ccccc2)cs1

[4.75, 5.07, 4.64, 5.09]

----------
Task for the reader: assign each of the following compounds its reported IC50.
TARGET: Jack bean (Canavalia ensiformis) urease (Canavalia ensiformis (Jack bean) (Dolichos ensiformis), UniProt P07374)
Sequence (P07374 whole entry, looked up): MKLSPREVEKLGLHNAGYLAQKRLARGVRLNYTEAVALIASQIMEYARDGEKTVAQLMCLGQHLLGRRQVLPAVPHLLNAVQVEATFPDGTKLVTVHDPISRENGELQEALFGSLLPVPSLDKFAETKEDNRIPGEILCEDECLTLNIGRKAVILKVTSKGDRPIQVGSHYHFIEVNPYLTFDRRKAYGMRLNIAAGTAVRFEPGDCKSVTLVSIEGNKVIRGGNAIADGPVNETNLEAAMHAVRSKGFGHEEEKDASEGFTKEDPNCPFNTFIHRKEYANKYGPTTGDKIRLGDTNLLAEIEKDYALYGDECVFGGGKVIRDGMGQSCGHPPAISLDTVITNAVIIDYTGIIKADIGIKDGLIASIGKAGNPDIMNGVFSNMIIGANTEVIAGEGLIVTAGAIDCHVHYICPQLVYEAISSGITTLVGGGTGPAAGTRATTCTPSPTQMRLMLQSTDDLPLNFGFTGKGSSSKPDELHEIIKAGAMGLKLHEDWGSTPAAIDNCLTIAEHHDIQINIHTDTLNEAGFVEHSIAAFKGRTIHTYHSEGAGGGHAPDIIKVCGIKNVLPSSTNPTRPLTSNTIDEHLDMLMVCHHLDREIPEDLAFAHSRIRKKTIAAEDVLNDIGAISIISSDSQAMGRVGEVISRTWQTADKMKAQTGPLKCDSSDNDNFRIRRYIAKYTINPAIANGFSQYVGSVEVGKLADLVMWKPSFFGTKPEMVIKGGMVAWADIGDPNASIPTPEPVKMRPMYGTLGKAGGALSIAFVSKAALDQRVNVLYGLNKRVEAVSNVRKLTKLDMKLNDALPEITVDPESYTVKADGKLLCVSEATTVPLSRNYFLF
METHOD_NOTES: biochemical
Assay type: biochemical
PARTICULARS: IC50
Give bare numbers, in µM.

{"ITEM_SMILES": "COc1cccc(C=Nc2nc(-c3ccccc3)cs2)c1O", "PROPERTY_LABEL": "IC50", "UNIT_INFO": "µM", "REPORTED": 8.8}

# ---- query compound ----
So for `CCOc1cccc(C=Nc2nc(-c3ccccc3)cs2)c1O` , the logged IC50 turned out to be 7.9

----------
TARGET: jack bean urease (Canavalia ensiformis (Jack bean) (Dolichos ensiformis), UniProt P07374)
Sequence (P07374 whole entry, looked up): as above
METHOD_NOTES: biochemical
Format: biochemical
PROPERTY_LABEL: Ki (µM)
One number for each entry, in µM.

{"COMPOUND": "CCOc1cccc(C=Nc2nc(-c3ccccc3)cs2)c1O [Compound 3]", "UNIT_INFO": "µM", "Ki": 9.7}
{"COMPOUND": "C(=Nc1nc(-c2ccccc2)cs1)c1c[nH]c2ccccc12 [Compound 2]", "UNIT_INFO": "µM", "Ki": 9.6}
{"COMPOUND": "Oc1ccc(Cl)cc1C=Nc1nc(-c2ccccc2)cs1 [Compound 8]", "UNIT_INFO": "µM", "Ki": 7.89}
{"COMPOUND": "Cc1ccc(C=Nc2nc(-c3ccccc3)cs2)o1 [Compound 10]", "UNIT_INFO": "µM", "Ki": 14.8}

// switching to the query compound
Bench note, jack bean urease (Canavalia ensiformis (Jack bean) (Dolichos ensiformis), UniProt P07374): COc1cccc(C=Nc2nc(-c3ccccc3)cs2)c1O [Compound 6] , Ki reads 8.22

----------
TARGET: Jack bean (Canavalia ensiformis) urease (Canavalia ensiformis (Jack bean) (Dolichos ensiformis), UniProt P07374)
METHOD_NOTES: biochemical
Type: biochemical
PARTICULARS: IC50 ± SEM
PROPERTY_LABEL: pIC50
One number for each entry, as −log10 of the molar value.

Consider the reported pIC50 for these compounds:
{"ITEM_SMILES": "Oc1ccc(C=Nc2nc(-c3ccccc3)cs2)cc1", "REPORTED": 4.70}
{"ITEM_SMILES": "Oc1cccc(C=Nc2nc(-c3ccccc3)cs2)c1O", "REPORTED": 4.71}

Let's switch to this compound now.
Memo: `CCOc1cccc(C=Nc2nc(-c3ccccc3)cs2)c1O` , reported pIC50: 5.10

Data provenance is patent US9447057B2.
